B1: Ribonuclease, P00648 (parent)
chain: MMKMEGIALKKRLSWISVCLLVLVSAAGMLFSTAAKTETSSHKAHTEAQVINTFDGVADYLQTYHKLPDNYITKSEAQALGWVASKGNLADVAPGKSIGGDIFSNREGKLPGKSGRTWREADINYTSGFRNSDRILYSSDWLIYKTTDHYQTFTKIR

# Variants of: B1
# measurement.context: Bacillus amyloliquefaciens; pH 9; 25 °C; Urea; Fluorescence; MES/Tris 150 mM/150 mM/; NaCl 1 M; structure 1BNI; whole UniProt chain shown
The reader will find reported ddG of mutation (higher = less stable) values listed item by item below.
State just the number; it will be interpreted in kcal/mol.

>>> print(df.to_string())
   variant_designation  numeric_value
0                W141L           0.66
1                W141Y           0.99
2                 H65G          -0.51

// recorded ddG of mutation (higher = less stable) for W141F : 0.6
